All figures here come from patent US6846492B2.

Tested on: Escherichia coli NCTC 8196 (= EC)
measurement.notes: MIC determination in microtiter plates, Escherichia coli
Format: cell-based
protocol.conditions: Tables 2a/2b, 48 hours at 37° C., ≦20% growth, optical density 620 nm, some approximate values

{"structure.smiles.string": "NCCc1cc(OCc2ccccc2F)c(OCc2ccccc2F)c(OCc2ccccc2F)c1", "system.under.test": "Escherichia coli NCTC 8196 (= EC)", "inequality.sign": "=", "MIC [ppm] EC / ppm": 15}
{"structure.smiles.string": "NCCc1cc(OCC(=O)OCc2ccccc2)c(OCC(=O)OCc2ccccc2)c(OCC(=O)OCc2ccccc2)c1", "system.under.test": "Escherichia coli NCTC 8196 (= EC)", "inequality.sign": ">", "MIC [ppm] EC / ppm": 120}
{"structure.smiles.string": "CCOC(=O)CCCOc1cc(CCN)cc(OCCCC(=O)OCC)c1OCCCC(=O)OCC", "system.under.test": "Escherichia coli NCTC 8196 (= EC)", "inequality.sign": ">", "MIC [ppm] EC / ppm": 120}
{"structure.smiles.string": "NCCc1cc(OCc2ccc3ccccc3c2)c(OCc2ccc3ccccc3c2)c(OCc2ccc3ccccc3c2)c1", "system.under.test": "Escherichia coli NCTC 8196 (= EC)", "inequality.sign": ">", "MIC [ppm] EC / ppm": 120}
{"structure.smiles.string": "CC(C)Oc1cc(CCN)cc(OC(C)C)c1OC(C)C", "system.under.test": "Escherichia coli NCTC 8196 (= EC)", "inequality.sign": ">", "MIC [ppm] EC / ppm": 120}
{"structure.smiles.string": "CCCCCCCCCOc1ccc(CCN)cc1OCCCCCCCCC", "system.under.test": "Escherichia coli NCTC 8196 (= EC)", "inequality.sign": ">", "MIC [ppm] EC / ppm": 120}
{"structure.smiles.string": "CC(C)(C)OC(=O)COc1cc(CCN)cc(OCC(=O)OC(C)(C)C)c1OCC(=O)OC(C)(C)C", "system.under.test": "Escherichia coli NCTC 8196 (= EC)", "inequality.sign": ">", "MIC [ppm] EC / ppm": 120}
{"structure.smiles.string": "NCCc1cc(OCc2ccc(F)cc2)c(OCc2ccc(F)cc2)c(OCc2ccc(F)cc2)c1", "system.under.test": "Escherichia coli NCTC 8196 (= EC)", "inequality.sign": "=", "MIC [ppm] EC / ppm": 3.75}
{"structure.smiles.string": "NCCc1ccc(OCc2ccc(F)cc2)c(OCc2ccc(F)cc2)c1", "system.under.test": "Escherichia coli NCTC 8196 (= EC)", "inequality.sign": "=", "MIC [ppm] EC / ppm": 24}
{"structure.smiles.string": "NCCc1cc(OCc2ccccc2)c(OCc2ccccc2)c(OCc2ccccc2)c1", "system.under.test": "Escherichia coli NCTC 8196 (= EC)", "inequality.sign": "=", "MIC [ppm] EC / ppm": 7.5}
{"structure.smiles.string": "NCCc1cc(OC2CCCC2)c(OC2CCCC2)c(OC2CCCC2)c1", "system.under.test": "Escherichia coli NCTC 8196 (= EC)", "inequality.sign": "=", "MIC [ppm] EC / ppm": 15}
{"structure.smiles.string": "COC(=O)COc1ccc(CCN)cc1OCC(=O)OC", "system.under.test": "Escherichia coli NCTC 8196 (= EC)", "inequality.sign": ">", "MIC [ppm] EC / ppm": 120}
{"structure.smiles.string": "CCOC(=O)COc1cc(CCN)cc(OCC(=O)OCC)c1OCC(=O)OCC", "system.under.test": "Escherichia coli NCTC 8196 (= EC)", "inequality.sign": ">", "MIC [ppm] EC / ppm": 120}
{"structure.smiles.string": "Cc1ccccc1COc1ccc(CCN)cc1OCc1ccccc1C", "system.under.test": "Escherichia coli NCTC 8196 (= EC)", "inequality.sign": "=", "MIC [ppm] EC / ppm": 15}
{"structure.smiles.string": "CC(C)Oc1ccc(CCN)cc1OC(C)C", "system.under.test": "Escherichia coli NCTC 8196 (= EC)", "inequality.sign": ">", "MIC [ppm] EC / ppm": 120}
{"structure.smiles.string": "CCCCCCOc1ccc(CCN)cc1OCCCCCC", "system.under.test": "Escherichia coli NCTC 8196 (= EC)", "inequality.sign": "=", "MIC [ppm] EC / ppm": 3.75}
{"structure.smiles.string": "CCC(CC)Oc1cc(CCN)cc(OC(CC)CC)c1OC(CC)CC", "system.under.test": "Escherichia coli NCTC 8196 (= EC)", "inequality.sign": "=", "MIC [ppm] EC / ppm": 15}
{"structure.smiles.string": "COC(=O)c1ccc(COc2ccc(CCN)cc2OCc2ccc(C(=O)OC)cc2)cc1", "system.under.test": "Escherichia coli NCTC 8196 (= EC)", "inequality.sign": "=", "MIC [ppm] EC / ppm": 30}
